This collection of values is drawn from PubChem BioAssay (NCI).

tested on: TK-10 renal; experiment: NCI tumour cell line growth inhibition, 48 h
Where a SMILES comes first, the peptide text is derived from it. [ ]: non-standard residue; d: D form.
Overview of reported TGI across a group of compounds:
assay metric: TGI

1. c1cc[n+](C2c3ccccc3C([n+]3ccccc3)c3ccccc32)cc1 (stereo not drawn)	> 100 µM
2. CC(=O)OCC1OC(N2C(=O)NC(=O)C3C=C4CCCCC4=CC32)C(OC(C)=O)C1OC(C)=O (stereo not drawn)	> 100 µM
3. Cc1ccc(-c2cc(-c3ccccc3)nc(N)n2)c(O)c1	> 100 µM
4. NC(N)=NCCC[C@H]1NC(=O)[C@@H](CCC(=O)O)NC(=O)[C@@H](CC(=O)O)NC(=O)[C@@H](CCC(=O)O)NC(=O)[C@H](Cc2c[nH]c3ccccc23)NC1=O (cyclo(W[dE][dD][dE][dR]))	> 7.5 µM
5. O=C(c1ccco1)c1nc2ccc(Cl)cc2[n+]([O-])c1C(F)(F)F	> 100 µM
6. COC(=O)C12C3C4(C(=O)OC)C1C1(C(=O)OC)C2C3(C(=O)OC)C41C(=O)N(C(C)C)C(C)C (stereo not drawn)	> 100 µM
7. C[C@]12CC[C@@H]3c4ccc(O)cc4CC[C@H]3[C@@H]1CC[C@@H]2NS(=O)(=O)c1ccc(Cl)cc1	17.6 µM
8. COc1ccc(/C=C2/SC(c3ccc(Cl)cc3)N(NC(=O)CCCCCCCCC(=O)NN3C(=O)/C(=C\c4ccc(OC)c(OC)c4)SC3c3ccc(Cl)cc3)C2=O)cc1OC (stereo not drawn)	> 100 µM

* * *

tested on: HCT-116 colon; test: NCI tumour cell line growth inhibition, 48 h
assay metric: TGI

1. CCO/C(O)=C(/C(=N)N1CCOCC1)C(=O)Nc1ccc(Cl)cc1	> 100 µM
2. c1cc[n+](C2c3ccccc3C([n+]3ccccc3)c3ccccc32)cc1 (stereo not given)	> 100 µM
3. O=c1cc(-c2ccccc2)nc(-n2[nH]c3c(c2=O)CCCC3)[nH]1	18.6 µM
4. CC[C@H](C)[C@H](NC(=O)c1ccccn1)C(=O)N(C)[C@H](C[C@@H](OC(C)=O)c1nc(C(=O)N[C@@H](Cc2ccccc2)C[C@H](C)C(=O)OC)cs1)C(C)C	50.3 µM
5. O=C(C1OC1c1ccc(F)cc1)C12CC3CC(CC(C3)C1)C2 (stereo not given)	20.1 µM
6. O=C1C=CC(=O)C(CNc2ccc(C(=O)OC34CC5CC(CC(C5)C3)C4)cc2)=C1Br	27.1 µM
7. CCCCCCCCCCc1c2nc(c(CCCCCCCCCC)c3ccc([nH]3)c(CCCCCCCCCC)c3ccc([nH]3)c(CCCCCCCCCC)c3nc1C=C3)C=C2	> 100 µM
8. c1csc(-c2cc(-c3ccsc3)c(-c3ccsc3)s2)c1	> 100 µM
9. CC(C)(C)OC(=O)NCCC1SC2C=CC1C2 (stereo not given)	> 100 µM
10. NNC1=Nc2ccc(Cl)cc2C(=S)N2CSCC12 (stereo not given)	> 100 µM
11. O=C(c1ccc(Cl)c(Cl)c1)N1CCN(C(=O)c2ccc(Cl)c(Cl)c2)C1=S	32.8 µM
12. CCCCCCc1cc2c(C)c(C)c(=O)oc2cc1OCCCOc1cc2oc(=O)c(C)c(C)c2cc1CCCCCC	> 100 µM
13. O=C(Cc1cc[n+]([O-])cc1)C(=O)Nc1cc(Cl)c(Cl)cc1Cl	> 100 µM
14. CCCC[C@H](NC(=O)[C@H]1CCCCN1C)C(=O)N(C)[C@H](C[C@@H](OC(C)=O)c1nc(C(=O)N[C@@H](Cc2ccccc2)C[C@H](C)C(=O)OCC)cs1)C(C)C	> 33.3 µM
15. CCC(=O)Nc1ccc(NCC(=O)Nc2ccc(Cl)cc2)cc1	30.4 µM
16. COC(=O)[C@]12CC[C@H]3CN(C(=O)OCc4ccccc4)[C@H]([C@H]31)[C@H](c1ccccc1)N2	> 100 µM
17. O=C1C[C@@H](Sc2ccccc2)C2(OCCO2)C2ON3CCCC[C@H]3[C@H]12 (stereo not given in full)	16.7 µM
18. C=C(CBr)CCCOCc1ccccc1	> 100 µM
19. CC(=O)OC1CN2CCC1CC2 (stereo not given)	> 100 µM
20. O=C(CCc1nnc2s/c(=C\c3ccccc3[N+](=O)[O-])c(=O)n12)Nc1cc(Cl)c(Cl)cc1Cl	31.4 µM
21. COc1cc(/C=C/C(=O)c2ccc(Nc3nc(NCCO)nc(N4CCOCC4)n3)cc2)cc(OC)c1OC	3 µM
22. COc1ccc2[nH]c3c(C)c4ccncc4c(C)c3c2c1	1.5 µM
23. O=C(Nc1ccc(Cl)cc1)c1cc2c(cc1Cl)SC(NNCCO)=NS2(=O)=O	> 100 µM
24. CCOC(=O)C1=c2[nH]c3cccc4cccc(c43)n2C(=O)CC1	> 100 µM
25. Cc1ncc([N+](=O)[O-])n1CCn1ccnc1[N+](=O)[O-]	> 100 µM
26. CCOC(=O)C1=C(C)NC(=O)NC1c1ccc(N(CCCl)CCCl)cc1Cl (stereo not given)	27.4 µM
27. O=c1[nH]c(=O)n(COCCOCc2ccccc2)cc1Nc1ccccc1	> 100 µM
28. CCCCCCCCCCC(=O)CC(=O)c1c(O)cccc1O	41.8 µM
29. O=C(c1ccco1)c1nc2ccc(Cl)cc2[n+]([O-])c1C(F)(F)F	> 100 µM
30. CC(C)(CNC(=O)/C(Cl)=C(/Cl)C(=O)O)CNC(=O)/C(Cl)=C(/Cl)C(=O)O	> 100 µM
31. CCOC(=O)CCc1cccc2c1oc1c(CCNC(=O)OCC3c4ccccc4-c4ccccc43)cccc12	> 100 µM
32. CCc1n[nH]c(=O)n1/N=C/c1ccc(/C=N/n2c(CC)n[nH]c2=O)cc1	> 100 µM
33. Nc1nccc2c1ncn2[C@H]1C[C@H](O)[C@@H](CO)O1	> 100 µM
34. O=C(Nc1ncc(Cc2ccccc2)s1)c1sc2ccccc2c1Cl	> 76.6 µM
35. CC/C=C\C/C=C\C/C=C\CCCCCCCC(=O)OC	> 100 µM
36. COC(=O)C(Cc1c[nH]c2ccccc12)NP(=O)(O)OCC1OC(n2ccc(N)nc2=O)C(O)C1O (stereo not given)	> 100 µM
37. COc1cccc(C2=C(c3cn(C)c4ccc(Cl)cc34)C(=O)NC2=O)c1	> 13.7 µM
38. CCn1c(O)c(C=Nc2ccccc2)s/c1=N/Nc1ncc(CC(=O)Nc2ccccc2C)s1	> 100 µM
39. O=c1n(-c2ccc(Cl)c(Cl)c2)c(=O)n(-c2ccc(Cl)c(Cl)c2)c(=O)n1-c1ccc(Cl)c(Cl)c1	5.5 µM
40. C/C=C(/C)C(=O)O[C@H]1CCN2CC=C(COC(=O)[C@@](O)([C@H](C)OC)C(C)(C)O)[C@H]12	> 100 µM

* * *

tested on: MALME-3M melanoma; test: NCI tumour cell line growth inhibition, 48 h
// TGI lookup, one value per entry
assay metric: TGI

1) CCOc1ccc([Se][Se]c2ccc(OCC)cc2)cc1	> 100 µM
2) O=c1[nH]cnc2c1sc(=S)n2-c1ccccc1	> 100 µM
3) O=c1n(-c2ccc(Cl)c(Cl)c2)c(=O)n(-c2ccc(Cl)c(Cl)c2)c(=O)n1-c1ccc(Cl)c(Cl)c1	> 27.8 µM
4) CC(C)(C)OC(=O)NCCC1SC2C=CC1C2 (stereo unspecified)	> 100 µM
5) CCCCCCCCCCC(=O)CC(=O)c1c(O)cccc1O	> 100 µM
6) O=C(CCc1nnc2s/c(=C\c3ccccc3[N+](=O)[O-])c(=O)n12)Nc1cc(Cl)c(Cl)cc1Cl	> 100 µM

* * *

test system: SK-MEL-2 melanoma; test: NCI tumour cell line growth inhibition, 48 h
assay metric: TGI

1. COc1cc(C(c2c(O)c3ccccc3oc2=O)c2c(O)c3ccccc3oc2=O)ccc1O	58.5 µM
2. CCCCCCCCCCc1c2nc(c(CCCCCCCCCC)c3ccc([nH]3)c(CCCCCCCCCC)c3ccc([nH]3)c(CCCCCCCCCC)c3nc1C=C3)C=C2	> 100 µM
3. CC1CCC2C(C)(C)CC3(C)CCC1C23O (centres undefined)	27.3 µM
4. COc1cc(/C=C/C(=O)c2ccc(Nc3nc(NCCO)nc(N4CCOCC4)n3)cc2)cc(OC)c1OC	3.73 µM
5. O=C1C=CC(=O)C(CNc2ccc(C(=O)OC34CC5CC(CC(C5)C3)C4)cc2)=C1Br	38.2 µM
6. CC1=C(C(=O)Nc2ccc(F)c(Cl)c2)C(c2cccc(Cl)c2)NC(=S)N1 (centres undefined)	20.5 µM
7. Clc1ccc(COc2ccccc2/C=N/c2c(-c3ccco3)nc3ccccn23)c(Cl)c1	42.8 µM
8. N#CC1(Nc2ccc(Br)cc2)CCCC1	> 100 µM
9. Clc1ccc(-c2nnc3c4nnc(-c5ccc(Cl)cc5Cl)n4c4ccccc4n23)c(Cl)c1	> 100 µM
